System: HT29
measurement-protocol: Cell proliferation assay
Format: cell-based, Homo sapiens
assay-conditions: HT29, colon carcinoma, 72 hours
pIC50: −log10 of the molar value.

smiles-input	target	pIC50
CC1=Nc2c(F)cc(-c3nc(Nc4ccc(C5CCN(C)CC5)cn4)ncc3F)cc2C12CCCC2	HT29	6.22

====

Test system: SNU-387
measurement-protocol: Cell proliferation assay
Assay type: cell-based, Homo sapiens
assay-conditions: Homo sapiens; SNU-387, liver, hepatocellular carcinoma, 72 hours

molecule	IC50 [nM]
CCN1CCN(Cc2ccc(Nc3ncc(F)c(-c4cc(F)c5nc(C)n(C(C)C)c5c4)n3)nc2)CC1 [Abemaciclib, abemaciclib, reference compound]	193
